Source of measurements: patent US8895585B2

Reported IC50 is given for each of the following compounds.
TARGET: glutathione S-transferase (GST)-fused full-length human Syk protein (Homo sapiens)
Construct: (GST)-fused full-length human Syk protein; GST (glutathione S-transferase); purchased Carna Biosciences
ASSAY PROCEDURE: Syk enzyme assay
Type: biochemical
TEST CONTEXT: Syk enzyme assay, Test Example 1; read-out: IC50 of Syk-inhibitory activity
PROPERTY NAME: IC50

[
  {
    "COMPOUND": "COc1ccc2cc(Nc3nc(N[C@@H](CN)CC4CC4)c(F)cc3C(N)=O)cnc2c1 [Example 006-215]",
    "PROPERTY NAME": "IC50",
    "RESULT": "< 10 nM"
  },
  {
    "COMPOUND": "NC(=O)c1cc(F)c(N[C@@H]2CCCC[C@@H]2N)nc1Nc1cncc(N2CCCCC2=O)c1 (relative stereo) [Example 004-108]",
    "PROPERTY NAME": "IC50",
    "RESULT": "100 to 1000 nM"
  },
  {
    "COMPOUND": "CCCC[C@@H](Nc1nc(Nc2ccc3ncccc3c2)c(C(N)=O)cc1F)[C@H](C)N [Example 006-208]",
    "PROPERTY NAME": "IC50",
    "RESULT": "< 10 nM"
  },
  {
    "COMPOUND": "COC(C)CCOc1nccc2c(Nc3nc(N[C@@H]4CCCC[C@@H]4N)c(F)cc3C(N)=O)cccc12 (relative stereo) [Example 004-157]",
    "PROPERTY NAME": "IC50",
    "RESULT": "10 to 50 nM"
  },
  {
    "COMPOUND": "NC(=O)c1cc(F)c(N[C@@H]2CCCC[C@@H]2N)nc1Nc1ccnc(-c2cc[nH]c2)c1 (relative stereo) [Example 006-131]",
    "PROPERTY NAME": "IC50",
    "RESULT": "< 10 nM"
  },
  {
    "COMPOUND": "CC[C@@H](Nc1nc(Nc2ccc3c(c2)c(C)nn3CC)c(C(N)=O)cc1F)[C@H](C)N [Example 006-525]",
    "PROPERTY NAME": "IC50",
    "RESULT": "< 10 nM"
  },
  {
    "COMPOUND": "COCCn1ncc2cc(Nc3nc(N[C@H](CC4CC4)[C@H](C)N)c(F)cc3C(N)=O)ccc21 [Example 006-343]",
    "PROPERTY NAME": "IC50",
    "RESULT": "< 10 nM"
  },
  {
    "COMPOUND": "CCn1ncc2ccc(Nc3nc(N[C@H](C4CC4)[C@H](C)N)c(F)cc3C(N)=O)cc21 [Example 006-581]",
    "PROPERTY NAME": "IC50",
    "RESULT": "< 10 nM"
  },
  {
    "COMPOUND": "CC(C)C[C@@H](Nc1nc(Nc2ccc3c(c2)c(C(C)C)nn3C)c(C(N)=O)cc1F)[C@H](C)N [Example 006-542]",
    "PROPERTY NAME": "IC50",
    "RESULT": "< 10 nM"
  },
  {
    "COMPOUND": "COc1ccc2cc(Nc3nc(N[C@@H]4CCCC[C@@H]4N)c(F)cc3C(N)=O)cnc2c1 (relative stereo) [Example 004-128]",
    "PROPERTY NAME": "IC50",
    "RESULT": "< 10 nM"
  },
  {
    "COMPOUND": "CCN(CC)CCn1ccc2c(Nc3nc(N[C@@H]4CCCC[C@@H]4N)c(F)cc3C(N)=O)ccnc21 [Example 004-028]",
    "PROPERTY NAME": "IC50",
    "RESULT": "< 10 nM"
  },
  {
    "COMPOUND": "NC(=O)c1cc(F)c(NC2CCCCC2N)nc1Nc1ccc2c(cnn2CC(F)F)c1 (stereo not drawn) [Example 002-187]",
    "PROPERTY NAME": "IC50",
    "RESULT": "< 10 nM"
  },
  {
    "COMPOUND": "NC(=O)c1cc(F)c(NC2CCCCC2N)nc1Nc1ccnc(-c2ccc3ccncc3c2)c1 (stereo not drawn) [Example 002-194]",
    "PROPERTY NAME": "IC50",
    "RESULT": "< 10 nM"
  },
  {
    "COMPOUND": "CC(C)C[C@@H](Nc1nc(Nc2ccc3ncccc3c2)c(C(N)=O)cc1F)c1nnn[nH]1 [Example 012-026]",
    "PROPERTY NAME": "IC50",
    "RESULT": "100 to 1000 nM"
  },
  {
    "COMPOUND": "COCCOc1ncc(Nc2nc(N[C@@H]3CCCC[C@@H]3N)c(F)cc2C(N)=O)cc1-n1nccn1 [Example 006-517]",
    "PROPERTY NAME": "IC50",
    "RESULT": "< 10 nM"
  }
]

* * *

System: THP-1 cells
ASSAY PROCEDURE: TNFα generation assay
Type: cell-based, human
TEST CONTEXT: Homo sapiens, THP-1, THP-1 cells; Table 22; read-out: IC50 in TNFα generation assay
Listed here are molecules together with their documented IC50.

[
  {
    "MOLECULE": "NC(=O)c1cc(F)c(N[C@@H](C(N)=O)c2ccccc2)nc1Nc1cnc2ccccc2c1",
    "IC50": "130 to 200 nM"
  },
  {
    "MOLECULE": "CCn1ncc2c(Nc3nc(N[C@H](CC(C)C)[C@H](C)N)c(F)cc3C(N)=O)cccc21",
    "IC50": "65 to 130 nM"
  },
  {
    "MOLECULE": "Cn1ccc2c(Nc3nc(N[C@@H]4CCCC[C@@H]4N)c(F)cc3C(N)=O)ccnc21",
    "IC50": "< 65 nM"
  },
  {
    "MOLECULE": "NC(=O)c1cc(F)c(N[C@@H]2CCCC[C@@H]2N)nc1Nc1cc(F)cc2[nH]ccc12 (relative stereo)",
    "IC50": "130 to 200 nM"
  },
  {
    "MOLECULE": "CCn1ncc2ccc(Nc3nc(NC4CCCCC4N)c(F)cc3C(N)=O)cc21 (stereo not drawn)",
    "IC50": "< 65 nM"
  },
  {
    "MOLECULE": "CC[C@@H](Nc1nc(Nc2ccc3c(cnn3CC)c2)c(C(N)=O)cc1F)[C@H](C)N",
    "IC50": "< 65 nM"
  },
  {
    "MOLECULE": "Cc1cc(Nc2nc(N[C@@H]3CCCC[C@@H]3N)c(F)cc2C(N)=O)cnc1C1CC1",
    "IC50": "65 to 130 nM"
  },
  {
    "MOLECULE": "COCCn1nc(C)c2ccc(Nc3nc(N[C@H](CC4CC4)[C@H](C)N)c(F)cc3C(N)=O)cc21",
    "IC50": "130 to 200 nM"
  },
  {
    "MOLECULE": "CCC[C@@H](Nc1nc(Nc2ccnc(-c3cc(OC)ccc3F)c2)c(C(N)=O)cc1F)[C@H](C)N",
    "IC50": "< 65 nM"
  },
  {
    "MOLECULE": "C[C@H](N)[C@@H](CC1CC1)Nc1nc(Nc2cncc(C3CC3)c2)c(C(N)=O)cc1F",
    "IC50": "65 to 130 nM"
  },
  {
    "MOLECULE": "COCCOc1cc(Nc2nc(N[C@@H](CN)CC(C)C)c(F)cc2C(N)=O)ccn1",
    "IC50": "65 to 130 nM"
  },
  {
    "MOLECULE": "NC(=O)c1cc(F)c(N[C@@H]2CCCC[C@@H]2N)nc1Nc1cncc(Cl)c1 (relative stereo)",
    "IC50": "65 to 130 nM"
  },
  {
    "MOLECULE": "NC[C@H](Nc1nc(Nc2ccc3ncccc3c2)c(C(N)=O)cc1F)C1CC1",
    "IC50": "< 65 nM"
  },
  {
    "MOLECULE": "NC(=O)c1cc(F)c(NC2CCCCC2N)nc1Nc1cnc2ncccc2c1 (stereo not drawn)",
    "IC50": "130 to 200 nM"
  },
  {
    "MOLECULE": "CCC[C@@H](Nc1nc(Nc2cncc3ccccc23)c(C(N)=O)cc1F)[C@H](C)N",
    "IC50": "65 to 130 nM"
  },
  {
    "MOLECULE": "NC(=O)c1cc(F)c(N[C@@H]2CCCC[C@@H]2N)nc1Nc1cccc2c1cnn2C1CC1",
    "IC50": "65 to 130 nM"
  },
  {
    "MOLECULE": "NC(=O)c1cc(F)c(NC2CCCCC2N)nc1Nc1cccc2nn(CC3CC3)cc12 (stereo not drawn)",
    "IC50": "130 to 200 nM"
  },
  {
    "MOLECULE": "Cc1cc(C)cc(Nc2nc(NCCN)c(Br)cc2C(N)=O)c1",
    "IC50": "130 to 200 nM"
  },
  {
    "MOLECULE": "Cc1cc(Nc2nc(N[C@H](CC3CC3)[C@H](C)N)c(F)cc2C(N)=O)cnc1C",
    "IC50": "65 to 130 nM"
  },
  {
    "MOLECULE": "COc1cc(Nc2nc(N[C@@H]3CCOC[C@@H]3N)c(F)cc2C(N)=O)ccn1",
    "IC50": "65 to 130 nM"
  },
  {
    "MOLECULE": "Cc1cnc2cc(Nc3nc(N[C@@H](CN)CC(C)C)c(F)cc3C(N)=O)ccc2n1",
    "IC50": "130 to 200 nM"
  },
  {
    "MOLECULE": "COc1nn(C)c2ccc(Nc3nc(N[C@H](C4CC4)[C@H](C)N)c(F)cc3C(N)=O)cc12",
    "IC50": "65 to 130 nM"
  },
  {
    "MOLECULE": "NC(=O)c1cc(F)c(N[C@@H]2CCCC[C@@H]2N)nc1Nc1cnc2c(c1)OCO2",
    "IC50": "130 to 200 nM"
  },
  {
    "MOLECULE": "NC(=O)c1cc(F)c(N[C@@H]2CCCC[C@@H]2N)nc1Nc1cnc2c(N)cccc2c1 (relative stereo)",
    "IC50": "< 65 nM"
  },
  {
    "MOLECULE": "Cc1cncc(Nc2nc(NC[C@H](C)N)c(F)cc2C(N)=O)c1",
    "IC50": "65 to 130 nM"
  },
  {
    "MOLECULE": "COCCn1nc(C)c2cc(Nc3nc(N[C@H](CC4CC4)[C@H](C)N)c(F)cc3C(N)=O)ccc21",
    "IC50": "65 to 130 nM"
  },
  {
    "MOLECULE": "COc1nn(C)c2ccc(Nc3nc(N[C@@H]4CCCC[C@@H]4N)c(F)cc3C(N)=O)cc12",
    "IC50": "< 65 nM"
  },
  {
    "MOLECULE": "NC(=O)c1cc(F)c(N[C@@H]2CCCC[C@@H]2N)nc1Nc1cccc2cnccc12 (relative stereo)",
    "IC50": "65 to 130 nM"
  },
  {
    "MOLECULE": "CCC[C@@H](Nc1nc(Nc2cnc(C)c(-n3nccn3)c2)c(C(N)=O)cc1F)[C@@H](N)CC",
    "IC50": "130 to 200 nM"
  },
  {
    "MOLECULE": "NC(=O)c1cc(F)c(NC2CCCCC2N)nc1Nc1cncc(-c2ccc3c(c2)OCO3)c1 (stereo not drawn)",
    "IC50": "< 65 nM"
  }
]
